Molecular target: human growth hormone secretagogue receptor (hGHS-R1a) (Homo sapiens, UniProt Q92847)
Construct: purchased PerkinElmer BioSignal #RBHGHSM; host or cells: HEK-293, stably transfected
Sequence (Q92847 whole entry): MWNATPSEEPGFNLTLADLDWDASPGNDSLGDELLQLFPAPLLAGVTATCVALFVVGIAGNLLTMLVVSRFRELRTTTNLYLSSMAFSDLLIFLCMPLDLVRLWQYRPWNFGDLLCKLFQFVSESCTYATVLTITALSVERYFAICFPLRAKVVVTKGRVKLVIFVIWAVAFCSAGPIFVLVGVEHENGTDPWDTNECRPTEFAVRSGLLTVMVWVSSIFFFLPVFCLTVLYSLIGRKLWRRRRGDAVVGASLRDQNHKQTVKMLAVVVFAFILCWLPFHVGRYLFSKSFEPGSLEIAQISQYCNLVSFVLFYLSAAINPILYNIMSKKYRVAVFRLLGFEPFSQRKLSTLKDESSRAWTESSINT
Test: Competitive radioligand binding assay (ghrelin receptor), [125I]-ghrelin displacement on GHS-R/HEK 293 membranes
Settings: Table 3B; binding activity at the human ghrelin receptor; read-out: Ki
REPORTED_METRIC: Ki

# annotated cases, reported Ki shown
C[C@@H]1C(=O)N[C@H](Cc2ccsc2)C(=O)NCCCc2ccccc2OCCN[C@@H](C2CC2)C(=O)N1C [compound 310] : 10 to 100 nM
CCC(C)C1NCCOc2ccccc2C=CCNC(=O)C(Cc2ccsc2)NC(=O)C2(CCCC2)NC1=O (centres unmarked) [compound 333] : 100 to 1000 nM
O=C1NC2(CCCC2)C(=O)N[C@@H](Cc2cccc(Cl)c2)C(=O)NC/C=C/c2ccccc2OCCN[C@H]1Cc1ccc(O)cc1 [compound 301] : 10 to 100 nM
CCC(C)[C@@H]1NCCOc2ccccc2/C=C/CNC(=O)[C@H](Cc2ccc(F)c(F)c2)NC(=O)C2(CCCC2)NC1=O (some centres unmarked) [331a] : 10 to 100 nM
CCC(C)C1NCCOCCCCCNC(=O)C(Cc2cccc(Cl)c2)NC(=O)C2(CCCC2)NC1=O (centres unmarked) [compound 370] : 100 to 1000 nM
CCC(C)[C@@H]1NC[C@@H](C)Oc2ccccc2CCCNC(=O)[C@H](Cc2cccc(Cl)c2)NC(=O)C2(CCCC2)NC1=O (some centres unmarked) [368a] : 10 to 100 nM
CC[C@H](C)[C@@H]1NCCOc2ccccc2/C=C/CNC(=O)[C@H](Cc2cccc(Br)c2)NC(=O)C2(CCCC2)NC1=O [compound 326] : 10 to 100 nM

Please turn your attention to the following entry.
Prompt line: For C[C@@H]1C(=O)N[C@H](Cc2ccc(F)cc2)C(=O)NCCCc2cc(Cl)ccc2OCCN[C@@H](C2CC2)C(=O)N1C [compound 373] , what is its reported Ki?
Response line: 10 to 100 nM

---

Molecular target: human growth hormone secretagogue receptor (hGHS-R1a) (Homo sapiens)
Construct: purchased PerkinElmer BioSignal #RBHGHSM; host or cells: HEK-293, stably transfected
Test: Competitive radioligand binding assay (ghrelin receptor), [125I]-ghrelin displacement on GHS-R/HEK 293 membranes
Conditions: Binding activity at the human ghrelin receptor, [125I]-ghrelin displacement; read-out: Ki
Listed here are compounds together with their documented Ki.

O=C1NC2(CCCC2)C(=O)N[C@@H](Cc2ccccc2)C(=O)NCCCc2ccccc2OCCN[C@H]1Cc1ccccc1 : 0.1 to 1 µM
CC(C)C[C@@H]1NCCOc2ccccc2CCCNC(=O)[C@H](CCC(=O)O)NC(=O)C2(CCCC2)NC1=O : > 10 µM
CCC[C@@H]1NCCOc2ccccc2CCCNC(=O)[C@@H](Cc2ccccc2)NC(=O)[C@H](CCC(=O)O)NC1=O : > 10 µM
CCC[C@@H]1NCCOc2ccccc2CCCNC(=O)[C@@H](CO)NC(=O)CN(C)C1=O : > 10 µM
O=C1NC2(CCCC2)C(=O)N[C@@H](Cc2ccccc2)C(=O)NC/C=C/c2ccccc2OCCN[C@H]1Cc1ccc(F)cc1 : > 10 µM

Prompt line: For CCC[C@@H]1NCCOc2ccccc2CCCNC(=O)[C@@H](Cc2ccccc2)NC(=O)[C@@H](CCCCN)NC1=O , what is its reported Ki?
Response line: > 10 µM

Prompt line: For CC(C)C[C@@H]1NCCOc2ccccc2CCCNC(=O)[C@@H](Cc2ccccc2)NC(=O)[C@@H](C)N(C)C1=O , what is its reported Ki?
Response line: 0.01 to 0.1 µM

Prompt line: For CCC(C)C1NCCOc2ccccc2CCCNC(=O)C(Cc2ccccc2)NC(=O)C(C)NC1=O (stereo not shown) , what is its reported Ki?
Response line: 0.1 to 1 µM

Prompt line: For CCCC1NCC/C=C/CCNC(=O)C(Cc2ccccc2)NC(=O)CN(C)C1=O (stereo not shown) , what is its reported Ki?
Response line: > 10 µM

Prompt line: For CC(C)C1NCCOc2ccccc2/C=C/CNC(=O)C(Cc2ccccc2)NC(=O)C2(CCSCC2)NC1=O (stereo not shown) , what is its reported Ki?
Response line: 0.1 to 1 µM
